# procedureText: NCI Yeast Anticancer Drug Screen. Data for the bub3 strain (AID 167)
# conditionDescription: S. cerevisiae bub3 mutant strain, at 50.0 µM (retest, dose inferred, filed as 5.0)
Compounds without any hit were thinned out: in the full panel of roughly 79,000, 15% have a hit. The source made the active and inactive calls. Rule as the data show it: active = growth inhibition above about 70%; inactive = the rest.
Pick from 1 (yes) = active, 0 (no) = inactive when you respond.

| compoundString | qualitativeLabel |
| --- | --- |
| O=[N+]([O-])c1ccc(Br)c([N+](=O)[O-])c1 | 1 (yes) |
| Oc1c(Cl)c(Cl)cc(Cl)c1Cl | 1 (yes) |
| CN=C(N)N/N=C(\C)c1ccc2sc3ccc(/C(C)=N/NC(N)=NC)cc3c2c1 | 0 (no) |

We now examine a further compound.
Ask: Which outcome was assigned to [pH]1p2[pH]p3p1p3[pH]2.c1cc[c]([Ge]([c]2ccccc2)[c]2ccccc2)cc1.c1cc[c]([Ge]([c]2ccccc2)[c]2ccccc2)cc1.c1cc[c]([Ge]([c]2ccccc2)[c]2ccccc2)cc1 in this test?
Result: 0 (no)

----------
For each entry below, report its growth inhibition value.
# procedureText: NCI Yeast Anticancer Drug Screen. Data for the bub3 strain (AID 167)
# conditionDescription: S. cerevisiae bub3 mutant strain, at 50.0 µM, hits give high values
This is part of a sample that, as a whole, favours compounds with a hit. Of some 79,000 tested, about 15% had one in any assay.
Numbers only, in %.

Recorded results for 5 compounds are shown here.
| compound | uom | growth inhibition |
| --- | --- | --- |
| Cc1cccc(N)c1N | % | -0.45 |
| [CH3][Sn]1([CH3])[O]C(=O)c2ccccc2C(=O)[O]1 | % | -13.4 |
| CCOc1c(Br)cc(N=Cc2ccc(N(CCCl)CCCl)c(OC)c2)cc1Br | % | -15.8 |
| COP(=O)(OC)C(=O)c1ccccc1 | % | -23.8 |
| COc1ccc(C(=O)C(CC2C(=O)NC(=O)NC2=O)c2ccc(OC)cc2)cc1 (stereo not drawn) | % | -19.1 |

// for each compound in input: emit growth inhibition
1. O=N[O-].O=N[O-].[Co].[NH2-].[NH2-].[NH2-].[NH2-]
2. O=C(CF)NCCCl
3. CCOP(=O)(OCC)C(=C(Cl)Cl)C(Cl)Cl
4. COc1ccc(N2CC=C(c3ccccc3)OP2(=O)N2CC2)cc1 (stereo not drawn)
5. CNC(P(=O)([O-])[O-])P(=O)([O-])[O-].N.N.[Pt+2]
6. N#CC1CCCCC1
7. O=[N+]([O-])c1cc(Cl)ccc1O

Result:
1: 2.15; 2: 9.65; 3: -17.1; 4: 0.95; 5: -8.65; 6: 4.65; 7: -7.15

Just so you know, measured growth inhibition for C=CC(=O)OCCN(C)C came out at 2.1

----------
# procedureText: NCI Yeast Anticancer Drug Screen. Data for the bub3 strain (AID 167)
# conditionDescription: S. cerevisiae bub3 mutant strain, at 50.0 µM, hits give high values
About 79,000 compounds went through this panel and 15% of them were active in at least one assay; those are over-represented in the sample as a whole.
endpointName: growth inhibition (%)
Numbers only, in %.

The following molecules have reported results that may help.
| molecule | uom | obsValue |
| --- | --- | --- |
| CC[CH2][Sn](=[O])[CH2]c1ccccc1 | % | 17.5 |
| O=P(Cc1ccccc1)(Oc1ccccc1)Oc1ccccc1 | % | 40.1 |
| CO[C@@]12[C@@H]3N[C@@H]3CN1C1=C(C(=O)C(N(C)c3ccc(O)cc3)=C(C)C1=O)[C@@H]2COC(N)=O | % | 53.2 |
| C#CC[As+](c1ccccc1)(c1ccccc1)c1ccccc1 | % | 91.2 |
| NC(N)=N/N=C/c1c[nH]c2ccccc12 | % | -10.1 |

# batch: return growth inhibition for each of the 4 molecules below
1. O=C(O)c1cccc2cccc(C(=O)O)c12.[Hg]
2. CS(=O)(=O)Cl
3. O=C1/C(=C\c2cc3ccccc3c3ccccc23)N2CCC1CC2
4. OCCCCO

Result:
1: 99.2; 2: -4.85; 3: -3.1; 4: -12.1

For each entry beneath this line, provide reported growth inhibition.
1. CC1=CC(=O)NP(=O)(Oc2ccc(C)cc2)N1 (configuration not stated)
2. C/C=C(\C)C(=O)OC1CC(C)(C)CC2C3=CCC4C5(C)CCC(=O)C(C)(C)C5CCC4(C)C3(C)CCC12C(=O)O (configuration not stated) (tested in a mixture with another compound)
3. CCCCCCCC[N+]12CN3CN(CN(C3)C1)C2

Result:
1. -25.3
2. 86
3. 31.8

----------
# procedureText: NCI Yeast Anticancer Drug Screen. Data for the sgs1 mgt1 strain (AID 161);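 also: 0% = growth of cultures given vehicle only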
# conditionDescription: S. cerevisiae sgs1 mgt1 strain, at 50.0 µM
About 79,000 compounds went through this panel and 15% of them were active in at least one assay; those are over-represented in the sample as a whole. Activity calls are given as the source filed them. No stated cut-off is given here; in the data, active means growth inhibition above about 70%; inactive means the rest.
Returns: one label drawn from T for active, F for inactive

Past entries and their recorded results:
| compound | qualitativeLabel |
| --- | --- |
| [C-]#[O+].[C-]#[O+].[Mo].c1ccc([PH+](CC[PH+](c2ccccc2)c2ccccc2)c2ccccc2)cc1.c1ccc([PH+](CC[PH+](c2ccccc2)c2ccccc2)c2ccccc2)cc1 | F |
| CCCN(CCC)C(=O)[S-].CCCN(CCC)C(=O)[S-].[Ni+2] | F |
| O=[N+]([O-])c1ccc(N(CCO)CCO)c2c1no[n+]2[O-] | F |

Ask: Assay result, entry COC[C@]12CN(C=O)[C@H]3C4[C@H](OC)[C@H]1C3([C@@H](OC)C[C@H]2O)[C@@H]1C[C@@]2(O)[C@H](OC(=O)c3ccccc3)[C@@H]1[C@]4(OC(C)=O)[C@@H](O)[C@@H]2OC — outcome?
Result: F

Ask: Test call, this compound: O=[As]c1ccc(O)c(O)c1 (stereo not given)
Result: T

Ask: Test call, this compound: Cc1cc(N(CCCl)CCCl)ccc1C=N/C(C#N)=C(\N)C#N
Result: F

Ask: // param item: O=C(CN1CCOCC1)c1ccc2ccccc2c1 ; yields the recorded call
Result: F

Ask: Could you please tell me the result logged for CCCC[As](CCCC)SC1CCC2(C)C(=CCC3C4CCC(=O)C4(C)CCC32)C1 (stereo not given) in this assay?
Result: T

Ask: Assay outcome for O=C(O)CN(CCN(CC(=O)O)CC(=O)O)CC(=O)O.[Cl][Pd][Cl] : what was it?
Result: F

Ask: Dear all, I need the recorded test outcome for COc1ccc([As]=O)cc1[N+](=O)[O-] (stereo not given) , thank you.
Result: F

Ask: So what was the verdict on C[CH2][Sn]([CH2]C)([O]c1cccccc1=O)[O]c1cccccc1=O in this test?
Result: T

Ask: Lab log entry: CCC[N+](CCC)(CCC)CCC.N#CC(C#N)=C([SH2+])[SH2+].N#CC(C#N)=C([SH2+])[SH2+].N#CC(C#N)=C([SH2+])[SH2+].[Cr+3] — outcome as called in the assay?
Result: F

Ask: Dear colleague, could you share the recorded outcome for c1ccc2c(c1)CC1OCN3CN(COC4Cc5ccccc5CC43)C1C2 (stereo not given) when you have a moment?
Result: F

Ask: Could you please tell me the result logged for [CH3][Sb]1([Cl])[CH2]CC[CH2]1 in this assay?
Result: F

----------
# procedureText: NCI Yeast Anticancer Drug Screen. Data for the cln2 rad14 strain (AID 165);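 also: 0% = growth equal to vehicle treated cultures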
# conditionDescription: S. cerevisiae cln2 rad14 strain, at 50.0 µM
About 79,000 compounds went through this panel and 15% of them were active in at least one assay; those are over-represented in the sample as a whole. The source made the active and inactive calls. Cut-off read from the data, not from the text of the source: active = growth inhibition above about 70%; inactive = the rest.
Please state which outcome applies, choosing from active, inactive

| molecule | qualitativeLabel |
| --- | --- |
| [Cl][Pt+2][Cl].[NH-]c1ccc([N+](=O)[O-])cc1[NH-] | inactive |
| O=C(CF)NCCCl | inactive |

Ask: // outcome(item) with item = c1ccc2cc(C3NCCc4[nH]cnc43)ccc2c1 (stereo unspecified)
Result: inactive

Ask: Entry Cc1ccc(OP(=O)(Oc2ccc(C)c(C)c2)Oc2ccc(C)c(C)c2)cc1C : call = ?
Result: inactive

Ask: Hi team, can someone confirm the assay call for NCCN1CC2CCC(CC2)C1 ?
Result: inactive

Ask: What did this assay record as the result for Cc1nnc2cc3ccccc3cn12 ?
Result: inactive

Ask: For CCSc1nc(=[N+]2CCCC2)ss1 , what call appears in the results of this test?
Result: active

Ask: What did the test return for CSCCC(N)P(C)(=O)O (stereo unspecified) ?
Result: inactive

Ask: Could you kindly confirm the outcome this assay logged for COc1ccc(C(c2c(O)c3ccccc3oc2=O)c2c(O)c3ccccc3oc2=O)cc1 ?
Result: inactive

Ask: Record request — test call for CC(=O)OC1=CCC2(C)C(CCC3C4CCC(OC(C)=O)C4(C)CCC32)C1=O (stereo unspecified)
Result: active

Ask: How did this test come out for C[C@@H]1C[C@H]2CC[C@H](O2)[C@H](C)C(=O)O[C@@H](C)C[C@@H]2CC[C@@H](O2)[C@@H](C)C(=O)O[C@H](C)C[C@H]2CC[C@H](O2)[C@H](C)C(=O)O[C@@H](C)C[C@@H]2CC[C@@H](O2)[C@@H](C)C(=O)O1 ?
Result: active

The measured values listed here are drawn from PubChem BioAssay (NCI).
